Measured values drawn from PubChem BioAssay (NCATS) for this set.

Experiment: qHTS of pediatric cancer cell lines to identify multiple opportunities for drug repurposing: Confirmatory screen for Saos-2 cells (AID 1347127); also: nearly all actives have a fitted effect of over 60% in size; also: potency is read from the fitted curve at half-maximal effect
Details: Saos-2 osteosarcoma cell viability; series mostly up to 45.9 µM
Records with an inconclusive call do not appear. Active and inactive are the calls of the source. Calls follow the shape of the dose curve; as a rule, active = well fitted cell-killing curve with a large enough effect; inconclusive = small, poorly fitted or top-dose-only effect, or effect the other way; inactive = no such curve, though single readings can be large or run the other way.
Readout Name: Potency

[
  {
    "Compound": "CO[C@H]1C(=O)[C@]2(C)[C@@H](OC)C[C@H]3OC[C@@]3(OC(C)=O)[C@H]2[C@H](OC(=O)c2ccccc2)[C@]2(O)C[C@H](OC(=O)[C@H](O)[C@@H](NC(=O)OC(C)(C)C)c3ccccc3)C(C)=C1C2(C)C",
    "Readout Name": "Potency",
    "Measured Value": "14.7 nM (active)"
  },
  {
    "Compound": "COc1ncc(-c2ccc3nccc(-c4ccnnc4)c3c2)cc1NS(=O)(=O)c1ccc(F)cc1F",
    "Readout Name": "Potency",
    "Measured Value": "46.5 nM (active)"
  },
  {
    "Compound": "CC(C)n1nc(-c2ccc3oc(N)nc3c2)c2c(N)ncnc21",
    "Readout Name": "Potency",
    "Measured Value": "233 nM (active)"
  },
  {
    "Compound": "CO[C@H]1C=CC=C(C)C(=O)NC2=CC(=O)C(NCCN(C)C)=C(C[C@@H](C)C[C@H](OC)[C@@H](O)[C@@H](C)C=C(C)[C@@H]1OC(N)=O)C2=O",
    "Readout Name": "Potency",
    "Measured Value": "inactive"
  },
  {
    "Compound": "CC(=NNC(=S)N1CCC1)c1ccccn1",
    "Readout Name": "Potency",
    "Measured Value": "inactive"
  },
  {
    "Compound": "CCc1ccc(OCc2ccccc2C(=O)Nc2ccc3nc(C)cc(N)c3c2)cc1",
    "Readout Name": "Potency",
    "Measured Value": "9270 nM (active)"
  },
  {
    "Compound": "O=C(O)CCC1CCC(c2cc(F)ccc2F)(S(=O)(=O)c2ccc(Cl)cc2)CC1 (configuration not stated)",
    "Readout Name": "Potency",
    "Measured Value": "inactive"
  }
]

###

Tested on: MCC-26
Assay: qHTS assay to identify novel small-molecules to repurpose for Merkel cell carcinoma treatment (AID 1296009); also: nearly all actives have a fitted effect of over 60% in size
Conditions: MCC and control cell lines, CellTiter-Glo viability, 72 h; series mostly up to 46 µM
Results filed as inconclusive are left out. Activity calls are given as the source filed them. Calls come from the whole dose curve; as a rule, active = well fitted inhibition curve with a large enough effect; inconclusive = small, poorly fitted or top-dose-only effect; inactive = flat fitted curve, though single readings scatter.
Outcomes: active, inactive

[
  {
    "Compound": "O=C(CCCCCCC(=O)Nc1ccccc1)NO",
    "System Tested": "MCC-26",
    "Class": "active"
  },
  {
    "Compound": "CC(C)(C(=O)NCC(F)(F)C(F)(F)F)C(=O)N[C@@H]1C(=O)Nc2ccccc2-c2ccccc21",
    "System Tested": "MCC-26",
    "Class": "inactive"
  },
  {
    "Compound": "CN(C)CCC=C1c2ccccc2COc2ccc(CC(=O)O)cc21",
    "System Tested": "MCC-26",
    "Class": "inactive"
  },
  {
    "Compound": "CC=CCC(C)C(O)C1C(=O)NC(CC)C(=O)N(C)CC(=O)N(C)C(CC(C)C)C(=O)NC(C(C)C)C(=O)N(C)C(CC(C)C)C(=O)NC(C)C(=O)NC(C)C(=O)N(C)C(CC(C)C)C(=O)N(C)C(CC(C)C)C(=O)N(C)C(C(C)C)C(=O)N1C (stereo not given)",
    "System Tested": "MCC-26",
    "Class": "inactive"
  },
  {
    "Compound": "O=C(OCC#CCSc1nnc(-c2cccc3ccccc23)o1)c1cc2ccccc2s1",
    "System Tested": "MCC-26",
    "Class": "inactive"
  },
  {
    "Compound": "O=C(CCc1ccc(O)cc1)c1c(O)cc(O)cc1O[C@@H]1O[C@H](CO)[C@H](O)[C@H](O)[C@H]1O",
    "System Tested": "MCC-26",
    "Class": "inactive"
  },
  {
    "Compound": "O=c1cc(CN2CCOCC2)occ1OCCCCCSc1ccnc2cc(C(F)(F)F)ccc12",
    "System Tested": "MCC-26",
    "Class": "inactive"
  },
  {
    "Compound": "COc1cccc(-c2cc(=O)c3ccccc3o2)c1N",
    "System Tested": "MCC-26",
    "Class": "inactive"
  },
  {
    "Compound": "O=C(O)[C@H]1O[C@H](Oc2cc3oc(-c4ccccc4)cc(=O)c3c(O)c2O)[C@H](O)[C@@H](O)[C@H]1O",
    "System Tested": "MCC-26",
    "Class": "inactive"
  },
  {
    "Compound": "COCCOC(=O)C1=C(C)NC2=C(C(=O)CC(c3ccccc3OC)C2)C1c1cccc(O)c1 (stereo not given)",
    "System Tested": "MCC-26",
    "Class": "inactive"
  },
  {
    "Compound": "O=c1c(O)c(-c2ccc(O)cc2)oc2cc(O)cc(O)c12",
    "System Tested": "MCC-26",
    "Class": "inactive"
  },
  {
    "Compound": "NC(=O)c1cnc(-c2ccc(C3(N)CCC3)cc2)c(-c2ccccc2)c1",
    "System Tested": "MCC-26",
    "Class": "inactive"
  },
  {
    "Compound": "Cc1nc(N)sc1-c1ccnc(Nc2ccc(N3CCOCC3)cc2)n1",
    "System Tested": "MCC-26",
    "Class": "inactive"
  },
  {
    "Compound": "CC=C(C)C(=O)O[C@H]1C(C)=C[C@]23C(=O)[C@@H](C=C(CO)[C@@H](O)[C@]12O)[C@H]1[C@@H](C[C@H]3C)C1(C)C",
    "System Tested": "MCC-26",
    "Class": "inactive"
  },
  {
    "Compound": "CCCNC(=O)NS(=O)(=O)c1ccc(Cl)cc1",
    "System Tested": "MCC-26",
    "Class": "inactive"
  },
  {
    "Compound": "CC(C)(C)COc1ccc(-n2cc(C(=O)O)cn2)cc1C#N",
    "System Tested": "MCC-26",
    "Class": "inactive"
  },
  {
    "Compound": "Cc1cc(OCCCc2c(C(=O)O)n(Cc3cccnc3)c3c(-c4c(COc5ccc(N6CCN([S+](C)(=O)[O-])CC6)cc5)nn(C)c4C)cccc23)cc(C)c1Cl",
    "System Tested": "MCC-26",
    "Class": "inactive"
  },
  {
    "Compound": "O=C(NCc1ccncc1)C12C[C@H]3C[C@@H](C1)CC(c1ccc(Cl)cc1)(C3)C2",
    "System Tested": "MCC-26",
    "Class": "inactive"
  },
  {
    "Compound": "COc1ccc(-c2nc(N3CCOCC3)c3sc(CN(C)c4ncc(C(=O)NO)cn4)cc3n2)cn1",
    "System Tested": "MCC-26",
    "Class": "active"
  },
  {
    "Compound": "CS(=O)(=O)N(Cc1ccco1)CC(O)Cn1c2ccccc2c2ccccc21 (stereo not given)",
    "System Tested": "MCC-26",
    "Class": "inactive"
  },
  {
    "Compound": "COc1cccc2c1CCCC2CCCN1CCN(C2CCCCC2)CC1 (stereo not given)",
    "System Tested": "MCC-26",
    "Class": "inactive"
  },
  {
    "Compound": "CC(=O)OC1C(C)OC(Oc2c(-c3ccc(O)cc3)oc3cc(O)cc(O)c3c2=O)C(O)C1OC(C)=O (stereo not given)",
    "System Tested": "MCC-26",
    "Class": "inactive"
  },
  {
    "Compound": "COc1cc(N2CCC(N3CCN(C)CC3)CC2)ccc1Nc1ncc(Cl)c(Nc2ccccc2S(=O)(=O)C(C)C)n1",
    "System Tested": "MCC-26",
    "Class": "active"
  },
  {
    "Compound": "CCNc1cc(NC2CCC(O)CC2)nc(Nc2ccc3c(ccn3Cc3ccccc3)c2)n1 (stereo not given)",
    "System Tested": "MCC-26",
    "Class": "inactive"
  },
  {
    "Compound": "Nc1ncnc2c1nc(Cl)n2[C@@H]1O[C@H](CO)[C@@H](O)[C@@H]1O",
    "System Tested": "MCC-26",
    "Class": "inactive"
  },
  {
    "Compound": "COc1cc2c(cc1OC)CN(CCc1ccc(NC(=O)c3cc(OC)c(OC)cc3NC(=O)c3cnc4ccccc4c3)cc1)CC2",
    "System Tested": "MCC-26",
    "Class": "inactive"
  },
  {
    "Compound": "O=C1Nc2ccc(Cl)cc2C(C#CC2CC2)(C(F)(F)F)O1 (stereo not given)",
    "System Tested": "MCC-26",
    "Class": "inactive"
  },
  {
    "Compound": "COc1ccc2cc(-c3nc(-c4ccc(S(C)=O)cc4)[nH]c3-c3ccncc3)ccc2c1 (stereo not given)",
    "System Tested": "MCC-26",
    "Class": "inactive"
  },
  {
    "Compound": "Cc1cccc(Nc2nc(-c3ccncc3)cs2)c1",
    "System Tested": "MCC-26",
    "Class": "inactive"
  },
  {
    "Compound": "O=C(O)CCC1CCC(c2cc(F)ccc2F)(S(=O)(=O)c2ccc(Cl)cc2)CC1 (stereo not given)",
    "System Tested": "MCC-26",
    "Class": "inactive"
  },
  {
    "Compound": "CC=CC[C@@H](C)C(=O)[C@H]1C(=O)N[C@@H](C(C)C)C(=O)N(C)CC(=O)N(C)[C@@H](CC(C)C)C(=O)N[C@@H](C(C)C)C(=O)N(C)[C@@H](CC(C)C)C(=O)N[C@@H](C)C(=O)N[C@H](C)C(=O)N(C)[C@@H](CC(C)C)C(=O)N(C)[C@@H](CC(C)C)C(=O)N(C)[C@@H](C(C)C)C(=O)N1C",
    "System Tested": "MCC-26",
    "Class": "inactive"
  },
  {
    "Compound": "O=C(CCN1CCN(C(=O)OCc2cc(Cl)cc(Cl)c2)CC1)c1ccc2[nH]c(=O)oc2c1",
    "System Tested": "MCC-26",
    "Class": "inactive"
  },
  {
    "Compound": "CC1(C)S[C@H]2[C@H](NC(=O)[C@@H](N)c3ccc(O)cc3)C(=O)N2[C@@H]1C(=O)O",
    "System Tested": "MCC-26",
    "Class": "inactive"
  },
  {
    "Compound": "Cc1cccc(C)c1OCC(C)N (stereo not given)",
    "System Tested": "MCC-26",
    "Class": "inactive"
  },
  {
    "Compound": "COc1ccc(Cc2ccc(NC(N)=O)cc2)cc1-c1cccc(Cl)c1",
    "System Tested": "MCC-26",
    "Class": "inactive"
  }
]
